test system: OVCAR-5; assay: NCI tumour cell line growth inhibition, 48 h
Active and inactive are the calls of the source. Rule as the data show it: active = GI50 up to about 1.1 µM and inactive = higher.
Would you kindly list GI50 for each of these molecules?

Recorded results for 5 molecules are shown here.
>>> value("O=C(c1nc2ccc(Cl)cc2[nH]c1=O)C(O)c1cccc([N+](=O)[O-])c1 (centres undefined)")
"> 100 µM (inactive)"
>>> value("CC12c3c4cc(Br)cc3Oc3cc(Br)cc(c31)Oc1cc(Br)cc(c12)O4")
"55.5 µM (inactive)"
>>> value("N#CC(c1cc(Cl)ncn1)c1nc2cc(C(F)(F)F)ccc2s1 (centres undefined)")
"3.78 µM (inactive)"
>>> value("O=C(O)/C(Cl)=C(Cl)/C=N/NC(=O)c1cc2ccccc2cc1O")
"19.3 µM (inactive)"
>>> value("O=C(N/N=C/c1ccccc1)c1c(F)c(F)c(F)c(F)c1F")
"> 100 µM (inactive)"

Kindly give each listed record's GI50.
1. CC(C)(C)OC(=O)NC(CCCCNC(=O)OCc1ccccc1)C(=O)NC(CCCCNC(=O)OCc1ccccc1)C(=O)ON1C(=O)CCC1=O (centres undefined)
2. CCOCCOCCOCc1nc(C#N)c(N)o1
3. CC(C)=CCC/C(C)=C/CC/C(C)=C/[C@@H]1[C@@H](CO)[C@]1(C)CC/C=C(\C)CCC=C(C)C

["> 100 µM (inactive)", "> 100 µM (inactive)", "49.4 µM (inactive)"]

Kindly give each listed record's GI50.
1. COC(=O)c1nc(-c2ccc(Cl)c(Cl)c2)nc2ccccc12
2. O=C(O)C/N=C(\C(=N\CC(=O)O)c1ccccc1)c1ccccc1
3. O=C(CC(NC(=O)OCc1ccccc1)C(=O)NC1Cc2ccccc2C1=O)OCc1ccccc1 (centres undefined)
4. CC1=N[C@](C)(C2CC3C=CC2C3=O)COC1=O (some centres undefined)

1. > 100 µM (inactive)
2. > 100 µM (inactive)
3. > 100 µM (inactive)
4. > 100 µM (inactive)

Kindly give each listed record's GI50.
1. O=C1C(Cl)=C(NCCOCCO)C(=O)c2c(O)ccc(O)c21
2. Cn1cnc([N+](=O)[O-])c1Sc1nc2cc(Cl)c(F)cc2[nH]1
3. Cc1ccc(S(=O)(=O)N2c3ccccc3[C@H]3CCc4c([nH]c5ccccc45)[C@H]32)cc1
4. C=C(C)[C@H]1C=C[C@@H](OC(C)=O)[C@@]2(COC(C)=O)[C@H](OC(=O)CCC)[C@H]3[C@@H](OC(C)=O)[C@@H](C)C[C@]3(O)C(=O)[C@@](C)(OC(C)=O)[C@H]12
5. O=C(CCN1CCN(c2ccccc2)CC1)N1CCc2c([nH]c3ccccc23)C1c1cccnc1 (centres undefined)

19.5 µM (inactive)
16.8 µM (inactive)
> 100 µM (inactive)
60.4 µM (inactive)
16.9 µM (inactive)

The measurements presented in this section are drawn from ChEMBL document CHEMBL1201862.
